Sourced from the supplement of paper PMC9170038

# Tested on: MS2 coat protein
# procedure summary: apparent KD of MS2 coat protein; designed switch direction (-1 OFF switch, 1 ON switch): -1; higher = weaker reporter binding
# run parameters: input ligand: none
Hi all, reminder that labels come from apparent KD of MS2 coat protein, split as bucket A (below 30 nM), bucket B (30 nM to below 90 nM), bucket C (90 nM or more)

- construct sequence: "GGAAUGAGAGAGGAUAUGGGAGGGAGGACCGGACCAGAAGGCUCGACAUGAGGAUCACCCAUGUGGAGAUCCUC [AK-MS2ROC-r4-exclusion6-6.11] (Eterna round: R97, puzzle: Exclusion 6)"
  label class: "bucket C"
- construct sequence: "UGUUGUUACGCAGGAUAUGAGGAUCACCCAUAGAAGGAUAUCGAAAGAGAAGGUCUGAGGAUUACCCAGAAGGGCGGGUUAACA [pwkr exNG2 2xF5 2xFMN.1] (Eterna round: R96, puzzle: Exclusion NG 2)"
  label class: "bucket C"
- construct sequence: "CGCUAUGCCGAGGAUAUUCUUGGUAUGCAUCUAGGAGAAGGCGGCACAUGAGGAUCACCCAUGUCAAAACAUAU [Eternabot (L1) Solution 97] (Eterna round: R97, puzzle: Exclusion 6)"
  label class: "bucket A"
- construct sequence: "UCGCUCCGUGUAGGAUAUCGUUGUAUUAUGCGGCGAGAAGGACAUGAGGAUCACCCAUGUAUGUUAUUAUCACGCGUGGCGCAA [Design 66] (Eterna round: R96, puzzle: Exclusion NG 1)"
  label class: "bucket A"
- construct sequence: "CUCAUGUGAGGAUAUCACCCAAGAGUGAGCAAUCACUAUCAUGAGAAGGCACAUGAGGAUCACCCAUGUUAAAA [Xesoer] (Eterna round: R97, puzzle: Exclusion 4)"
  label class: "bucket B"
- construct sequence: "CUAUUUUUCGCAGGAUAUGCAUCUCCUUUAUUAGCAGAAGGGCGUUAAACAUGAGGAUCACCCAUGUAUUGUGGUGCUUUUUUC [JR_ExcNG1_Sub059] (Eterna round: R96, puzzle: Exclusion NG 1)"
  label class: "bucket B"

Q: Form: Item = CGUCAACAUGAGGAUCACCCAUGUUAGGAUAUGGCGGUCCAUGGUUGGGACUAGACCGCCAGAAGGAGCAUGCG [Eternabot (L1) Solution 54] (Eterna round: R97, puzzle: Exclusion 1) ; Class = ?
A: bucket B

Q: // return the class label for GUCAGCUCGUGAGGAUAUACAUGAGGAUCACCCAUGUGAUCAAUAGCAGCUUCGGCUGCAUACAUGUAGAAGGCACGAGCUGAC [ENG2/6-A1] (Eterna round: R96, puzzle: Exclusion NG 2)
A: bucket A

Q: Tag the class for CUGCUCCGUGUAGGAUAUGCGCGCACCACCCGCGCAGAAGGACAUGAGGAUCACCCAUGUAUGUUAUUAUCACGUGUGGCGCGC [Design 38] (Eterna round: R96, puzzle: Exclusion NG 1)
A: bucket A

Q: Category of GCAAAAUAUCAGGAUAUGACUAAUUGCGUUAAGUCAGAAGGGAUAACAUGAGGAUCACCCAUGUGAUAUAGUGU [JR_Ex6_Sub030] (Eterna round: R97, puzzle: Exclusion 6) , please.
A: bucket C
